Source listed as PubChem BioAssay (NCATS).

- Method: Drug repurposing screens with cells derived from glioblastoma tumor samples (AID 1345199); also: % is scaled to controls: 0 for no effect and ±100 for the full control effect
- Assay conditions: GBM patient neurospheres viability, ATP luminescence, 48 h; at 46.1 µM (top of the series); tumour line C
Records with an inconclusive call do not appear.
# key: entry, value: activity, negative = cell killing

- Compound: "Cc1ccc(/C=N/n2c(-c3ccccc3)csc2=S)cc1"
  Measurement units: "%"
  activity, negative = cell killing: -16.1
- Compound: "Nc1c2ccccc2nc2ccccc12"
  Measurement units: "%"
  activity, negative = cell killing: -4.16
- Compound: "CC(=O)Nc1ccc(S(=O)(=O)Nc2cc(C)on2)cc1"
  Measurement units: "%"
  activity, negative = cell killing: -0.236
- Compound: "COc1cc(C=O)ccc1O"
  Measurement units: "%"
  activity, negative = cell killing: -15.5
- Compound: "CCNC(=O)NCCCOc1cccc(CN2CCCCC2)c1"
  Measurement units: "%"
  activity, negative = cell killing: -25.1
- Compound: "CO/N=C(/C(=O)N[C@@H]1C(=O)N2C(C(=O)OCOC(=O)C(C)(C)C)=C(C)CS[C@H]12)c1csc(N)n1"
  Measurement units: "%"
  activity, negative = cell killing: 0.657
- Compound: "CC(C)C[C@H](NC(=O)CNC(=O)[C@H](Cc1ccc(O)cc1)NC(=O)[C@H](CO)NC(=O)[C@H](Cc1c[nH]c2ccccc12)NC(=O)[C@H](Cc1cnc[nH]1)NC(=O)[C@@H]1CCC(=O)N1)C(=O)N[C@@H](CCCN=C(N)N)C(=O)N1CCC[C@H]1C(=O)NCC(N)=O (stereo in doubt)"
  Measurement units: "%"
  activity, negative = cell killing: -6.29
- Compound: "O=C(Oc1ccccc1)c1ccccc1O"
  Measurement units: "%"
  activity, negative = cell killing: -8.91
- Compound: "CN(CC1(C)CCCO1)S(=O)(=O)c1ccc(Cl)c(S(N)(=O)=O)c1 (configuration not stated)"
  Measurement units: "%"
  activity, negative = cell killing: 16.1
- Compound: "CC(=O)CC/C=C(\\C)CC/C=C(\\C)CC/C=C(\\C)CCC=C(C)C"
  Measurement units: "%"
  activity, negative = cell killing: 4.26
- Compound: "CN=C(N)NC(=O)Nc1c(C)cccc1C"
  Measurement units: "%"
  activity, negative = cell killing: 0.539
- Compound: "CC(=O)O[C@@H]1C(=O)O[C@@H]2[C@H]1OC(=O)[C@@H]2OC(C)=O"
  Measurement units: "%"
  activity, negative = cell killing: -4
- Compound: "CO[C@]1(NC(=O)CSC(F)F)C(=O)N2C(C(=O)O)=C(CSc3nnnn3CCO)CO[C@H]21"
  Measurement units: "%"
  activity, negative = cell killing: -14
- Compound: "CO[C@@]1(NC(=O)CSC[C@@H](N)C(=O)O)C(=O)N2C(C(=O)O)=C(CSc3nnnn3C)CS[C@@H]21"
  Measurement units: "%"
  activity, negative = cell killing: -4.96
- Compound: "CC(=O)Nc1c(I)c(NC(C)=O)c(I)c(C(=O)O)c1I"
  Measurement units: "%"
  activity, negative = cell killing: -9.62
- Compound: "CC(=O)OCC[N+](C)(C)C"
  Measurement units: "%"
  activity, negative = cell killing: 18
- Compound: "Cn1cc(S(C)=O)c(=O)c2ccc(F)cc21 (configuration not stated)"
  Measurement units: "%"
  activity, negative = cell killing: -1.4
- Compound: "OC[C@]1(O)OC[C@@H](O)[C@H](O)[C@@H]1O"
  Measurement units: "%"
  activity, negative = cell killing: 12.8
- Compound: "CN1C(CSCC(F)(F)F)Nc2cc(Cl)c(S(N)(=O)=O)cc2S1(=O)=O (configuration not stated)"
  Measurement units: "%"
  activity, negative = cell killing: -15.1
- Compound: "NCC(=O)O"
  Measurement units: "%"
  activity, negative = cell killing: -6.24
- Compound: "CCCCCC[C@@H](CCC)C(=O)O"
  Measurement units: "%"
  activity, negative = cell killing: -6.46
- Compound: "O=C1CC[C@H](C(=O)N2CCCCC2)N1"
  Measurement units: "%"
  activity, negative = cell killing: 1.57
- Compound: "CCc1cc(S(=O)(=O)O)c2cc(C(C)C)cccc1-2"
  Measurement units: "%"
  activity, negative = cell killing: -1.11
- Compound: "CCCCNc1ccc(C(=O)OCCN(CC)CC)cc1"
  Measurement units: "%"
  activity, negative = cell killing: -27.5
- Compound: "O=C(O)c1ccccc1Nc1cc(Cl)ccc1C(=O)O"
  Measurement units: "%"
  activity, negative = cell killing: 1.8
- Compound: "CC1c2ccccc2CN1NC(=O)c1ccc(Cl)c(S(N)(=O)=O)c1 (configuration not stated)"
  Measurement units: "%"
  activity, negative = cell killing: -11.2
- Compound: "Cc1nc([N+](=O)[O-])cn1-c1ccc([N+](=O)[O-])cc1"
  Measurement units: "%"
  activity, negative = cell killing: 4.99
